molecular target: SH2/SH3 adapter protein NCK1 (Homo sapiens, UniProt P16333); experiment: Displacement of PRP-1 peptide from human Nck […] SH3 domain by fluorescence polarization
Measured EC50 values are reported for all entries that follow.
# output: bare number, implied unit µM

- smi: "Nc1ccc2cc(C3OCCO3)ccc2n1"
  unitTag: "µM"
  EC50: 300

Query :: Could you tell me which EC50 is on file for `Cc1ccc2nc(N)ccc2c1` ?
Result :: 90

* * *

Biological target: Tyrosine-protein kinase TEC (Mus musculus, UniProt Q8CFK4)
Sequence (Q8CFK4 whole entry): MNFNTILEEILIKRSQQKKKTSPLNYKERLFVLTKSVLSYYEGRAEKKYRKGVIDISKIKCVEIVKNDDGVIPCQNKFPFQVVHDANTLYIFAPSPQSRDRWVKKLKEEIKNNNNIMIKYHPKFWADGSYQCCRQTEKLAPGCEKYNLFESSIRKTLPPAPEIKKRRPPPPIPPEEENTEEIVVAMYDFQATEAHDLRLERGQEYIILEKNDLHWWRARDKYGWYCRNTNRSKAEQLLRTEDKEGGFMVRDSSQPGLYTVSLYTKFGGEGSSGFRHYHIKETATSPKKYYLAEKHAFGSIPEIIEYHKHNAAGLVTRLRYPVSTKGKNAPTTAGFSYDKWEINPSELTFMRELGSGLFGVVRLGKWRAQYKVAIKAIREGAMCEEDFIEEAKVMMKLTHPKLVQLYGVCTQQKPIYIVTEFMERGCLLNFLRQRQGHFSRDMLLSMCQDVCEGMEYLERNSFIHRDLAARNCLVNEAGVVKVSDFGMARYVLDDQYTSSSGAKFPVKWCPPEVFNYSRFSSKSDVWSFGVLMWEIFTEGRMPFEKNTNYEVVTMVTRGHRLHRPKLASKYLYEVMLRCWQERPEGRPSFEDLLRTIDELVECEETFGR
Assay: Binding affinity to mouse Tec kinase SH3 domain by NMR chemical shift perturbation
Listed compounds paired with reported log10(Kd)
Values reflect log10 of reported Kd (µM).

Query :: Can you look up the measured log10(Kd) of `CNc1ccc2ccccc2n1` for me?
Result :: 2.58

Query :: If you can, please state the reported log10(Kd) value of `CC1(C)COC(c2ccc3nc(N)ccc3c2)OC1` .
Result :: 1.34

Query :: Would you mind telling me what log10(Kd) value was observed for `Nc1ccc2cc(C3OCCCO3)ccc2n1` ?
Result :: 1.72

Query :: Need log10(Kd), item `Nc1ccc2cc(C3OCCO3)ccc2n1`
Result :: 1.60

Query :: Report log10(Kd) for `Cc1ccc2nc(N)ccc2c1` please.
Result :: 1.79

* * *

compounds and their reported EC50
target: Tyrosine-protein kinase TEC (Mus musculus); assay: Displacement of PRP-1 peptide from mouse Tec kinase SH3 domain by fluorescence polarization
Field format: number, assumed µM, no unit text.

- smi: "Nc1ccc2cc(C3OCCO3)ccc2n1"
  unitTag: "µM"
  EC50: 34

Query :: Value wanted: EC50 (Tyrosine-protein kinase TEC (Mus musculus)) of entry `Nc1ccc2cc(Cl)ccc2n1`
Result :: 76

Query :: What EC50 appears in the records for this compound with Tyrosine-protein kinase TEC (Mus musculus)? `Nc1ccc2cc(Br)ccc2n1`
Result :: 58

Query :: Hello, I am looking for reported EC50 with Tyrosine-protein kinase TEC (Mus musculus) for `Cc1ccc2nc(N)ccc2c1` . Could you help?
Result :: 75

Query :: Field: EC50 (Tyrosine-protein kinase TEC (Mus musculus)). Entry: `Nc1ccc2cc(F)ccc2n1`
Result :: 150

Query :: Please tell me: EC50 of `COc1ccc2nc(N)ccc2c1` , system Tyrosine-protein kinase TEC (Mus musculus)?
Result :: 63

Query :: Recall the recorded EC50 for `Nc1ccc2cc(C3OCCCO3)ccc2n1` with Tyrosine-protein kinase TEC (Mus musculus) and state it.
Result :: 26
